ASSAY_COMMENT: Comparative pharmacokinetic test in white rats
Format: in vivo, white rats (Sprague-Dawley)
CONDITION_PARAMETERS: male, Sprague-Dawley, plasma, iv; rat, 50 mg/kg, I.V.

[
  {
    "STRUCTURE": "CN1CCCN(Cc2ccc(C(=O)Nc3ccc(Nc4nccc(-c5cccnc5)n4)cc3)cc2)CC1.CS(=O)(=O)O",
    "half-life / min": 82.2
  }
]

====

Each entry below lists one item and its recorded melting point value.
REPORTED_METRIC: melting point

[
  {
    "STRUCTURE": "CN1CCN(NCc2ccc(C(=O)Nc3ccc(Nc4nccc(-c5cccnc5)n4)cc3)cc2)CC1.Cl",
    "REPORTED_METRIC": "melting point",
    "VALUE_OBSERVED": "183 to 185 °C"
  },
  {
    "STRUCTURE": "CS(=O)(=O)O.Cc1cc(NC(=O)c2ccc(CNN3CCN(C)CC3)cc2)ccc1Nc1nccc(-c2cccnc2)n1",
    "REPORTED_METRIC": "melting point",
    "VALUE_OBSERVED": "172 to 174 °C"
  },
  {
    "STRUCTURE": "CN1CCCN(Cc2ccc(C(=O)Nc3cccc(Nc4nccc(-c5cccnc5)n4)c3)cc2)CC1.CS(=O)(=O)O",
    "REPORTED_METRIC": "melting point",
    "VALUE_OBSERVED": "206 to 208 °C"
  },
  {
    "STRUCTURE": "CN1CCCN(Cc2ccc(C(=O)Nc3ccc(F)c(Nc4nccc(-c5cccnc5)n4)c3)cc2)CC1.CS(=O)(=O)O",
    "REPORTED_METRIC": "melting point",
    "VALUE_OBSERVED": "158 to 160 °C"
  },
  {
    "STRUCTURE": "CS(=O)(=O)O.Cc1cc(NC(=O)c2ccc(CN3CCCN(C)CC3)cc2)ccc1Nc1nccc(-c2cccnc2)n1",
    "REPORTED_METRIC": "melting point",
    "VALUE_OBSERVED": "166 to 168 °C"
  },
  {
    "STRUCTURE": "CN1CCN(Cc2ccc(C(=O)Nc3ccc(F)c(Nc4nccc(-c5cccnc5)n4)c3)cc2)CC1.CS(=O)(=O)O",
    "REPORTED_METRIC": "melting point",
    "VALUE_OBSERVED": "172 to 174 °C"
  },
  {
    "STRUCTURE": "COc1ccc(NC(=O)c2ccc(CNN3CCN(C)CC3)cc2)cc1Nc1nccc(-c2cccnc2)n1.CS(=O)(=O)O",
    "REPORTED_METRIC": "melting point",
    "VALUE_OBSERVED": "142 to 144 °C"
  }
]

====

ASSAY_COMMENT: Comparative pharmacokinetic test in white rats
Format: in vivo, white rats (Sprague-Dawley)
CONDITION_PARAMETERS: male, Sprague-Dawley, plasma, po; rat, 50 mg/kg, P.O.
Each entry below carries its reported Cmax.
REPORTED_METRIC: Cmax (ng/mL)

[
  {
    "STRUCTURE": "CS(=O)(=O)O.Cc1ccc(NC(=O)c2ccc(CN3CCCN(C)CC3)cc2)cc1Nc1nccc(-c2cccnc2)n1",
    "UNIT_SPEC": "ng/mL",
    "VALUE_OBSERVED": 2200
  },
  {
    "STRUCTURE": "CS(=O)(=O)O.Cc1ccc(NC(=O)c2ccc(CNN3CCN(C)CC3)cc2)cc1Nc1nccc(-c2cccnc2)n1",
    "UNIT_SPEC": "ng/mL",
    "VALUE_OBSERVED": 3160
  }
]
